- Tested target: human activated kallikrein enzyme (Homo sapiens)
- Procedure details: Inhibition of human activated kallikrein enzyme, fluorogenic peptide substrate assay (500 pM enzyme format)
- Applied conditions: 500 pM activated kallikrein, 300 μM PFR-AMC substrate, 30 min preincubation, 10 min reaction, room temperature; read-out: Primary Dose Response Assay: Average EC50
Items are presented alongside their recorded EC50.

Example entries and their recorded answers appear below.
Cc1cc(N)nc(C)c1CNc1cc(OCc2cn3cc(C4CC4)cc(C4(F)COC4)c3n2)ncn1 [Example 109] : ≤ 5 nM
O=C(Cc1ncn2ccc(Cl)cc12)Nc1cnnc(OCc2cn3cc(C4CC4)ccc3n2)c1 [Example 34] : 50 to 500 nM
CCOC(=O)CCc1nc(NCc2c(C)cc(C(=N)NC(=O)OCC)cc2C)cc(OCc2cn3cc(C4CC4)ccc3n2)n1 [Example 77] : 5 to 50 nM

Next, consider the following compound.
stdin: Recorded EC50 for CC(=O)c1nc(NCc2cn3cc(C4CC4)ccc3n2)cc(NC(=O)Cc2ncn3ccc(Cl)cc23)n1 [Example 102] , please?
stdout: ≤ 5 nM

* * *

- Tested target: human activated kallikrein enzyme (Homo sapiens)
- Procedure details: Inhibition of human activated kallikrein enzyme, fluorogenic peptide substrate assay (500 pM enzyme format)
- Applied conditions: 500 pM activated kallikrein, 300 μM PFR-AMC substrate, 30 min preincubation, 10 min reaction, room temperature; read-out: Primary Dose Response Assay: Average EC50
pEC50: −log10 of the molar value. Where a name gives a salt, the structure may show the parent alone.
Property label: pEC50

// solved cases for pEC50 follow
NC(=O)Cc1cc2c(Cl)cn(-c3cc(NCc4cn5cc(C6CC6)ccc5n4)ccn3)c2cc1F : 5.05 to 6.30
O=C(Cc1ncn2ccc(Cl)cc12)Nc1cc(NCc2cn3cc(C4CC4)ccc3n2)nc(C(=O)O)n1 : ≥ 8.30
O=C(Cc1ncn2ccc(Cl)cc12)Nc1cc(C(F)(F)c2cn3cc(C4CC4)ccc3n2)ncn1 [Example 60, formic acid salt] : 6.30 to 7.30
N#Cc1cc(C2CC2)cn2cc(CNc3cc(NC(=O)Cc4ncn5ccc(Cl)cc45)ncn3)nc12 : ≥ 8.30

// next entry
stdin: Which value of pEC50 has been reported for Cc1cc(N)nc(C)c1CNc1cc(C(O)c2cn3cc(C4CC4)ccc3n2)ncn1 (centres unmarked) [Example 64, bisformic acid salt] in the records?
stdout: 7.30 to 8.30

* * *

- Tested target: human activated kallikrein enzyme (Homo sapiens, UniProt P03952)
- Sequence (P03952 391-638 limits assumed): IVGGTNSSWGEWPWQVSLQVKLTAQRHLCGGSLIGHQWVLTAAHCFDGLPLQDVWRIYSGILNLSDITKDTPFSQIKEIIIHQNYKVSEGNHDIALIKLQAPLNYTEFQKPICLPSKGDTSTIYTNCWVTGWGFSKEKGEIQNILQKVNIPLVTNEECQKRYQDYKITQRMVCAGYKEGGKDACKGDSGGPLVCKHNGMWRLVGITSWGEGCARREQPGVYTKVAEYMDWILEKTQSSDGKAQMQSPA
- Sequence (P03952 20-390 partner limits assumed): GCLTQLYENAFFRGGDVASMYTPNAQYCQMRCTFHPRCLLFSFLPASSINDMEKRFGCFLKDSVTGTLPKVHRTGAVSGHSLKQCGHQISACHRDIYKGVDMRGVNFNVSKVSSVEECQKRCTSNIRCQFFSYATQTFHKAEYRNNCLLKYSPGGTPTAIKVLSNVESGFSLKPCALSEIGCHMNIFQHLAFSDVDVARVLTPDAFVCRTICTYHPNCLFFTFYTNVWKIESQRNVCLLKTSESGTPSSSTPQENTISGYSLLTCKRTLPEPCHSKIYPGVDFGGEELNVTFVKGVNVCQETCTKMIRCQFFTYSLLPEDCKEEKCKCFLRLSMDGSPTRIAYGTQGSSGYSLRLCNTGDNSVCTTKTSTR
- Procedure details: Inhibition of human activated kallikrein enzyme, fluorogenic peptide substrate assay (500 pM enzyme format)
- Type: biochemical
- Applied conditions: 500 pM activated kallikrein, 300 μM PFR-AMC substrate, 30 min preincubation, 10 min reaction, room temperature; read-out: Primary Dose Response Assay: Average EC50
In this section we review reported EC50 values for a set of compounds.

Worked set:
O=C(Cn1ccc2ccc(Cl)cc21)Nc1cc(NCc2cn3cc(C4CC4)ccc3n2)ccn1 [Example 115] : 500 to 9000 nM
Cc1cc(C(=N)N)cc(C)c1CNc1cc(OCc2cn3cc(C4CC4)ccc3n2)nc(C(=O)O)n1 [Example 85] : ≤ 5 nM
COC(C(=O)Nc1cc(NCc2cn3cc(C4CC4)ccc3n2)ncn1)c1ncn2ccc(Cl)cc12 (stereo not shown) [Example 6] : 50 to 500 nM
Cc1cc(C(=N)N)cc(C)c1CNc1cc(OCc2cn3cc(C4CC4)ccc3n2)nc(-c2nn[nH]n2)n1 [Example 91] : ≤ 5 nM
O=C(Cc1cc(Cl)ccc1-n1cnnn1)Nc1cc(NCc2cn3cc(C4CC4)ccc3n2)ncn1 [Example 35] : 5 to 50 nM

stdin: Give the measured EC50 of O=C(Cc1ncn2ccc(Br)c(F)c12)Nc1cc(NCc2cn3cc(C4CC4)ccc3n2)ncn1 [Example 53] .
stdout: ≤ 5 nM

stdin: Can you look up the measured EC50 of O[C@H]1C[C@H](c2cn3cc(C4CC4)ccc3n2)N(c2cc(NCc3cnc4[nH]cc(Cl)c4c3)ncn2)C1 [Example 137] for me?
stdout: 50 to 500 nM
